Provenance of the data: patent US20080152587A1

- system: T1, mouse uPAR on the surface of NCTC L929 cells (mouse, UniProt P35456 24-298)
- T1 construct: whole, on cells; also called cell surface mouse uPAR
- T1 sequence (looked up): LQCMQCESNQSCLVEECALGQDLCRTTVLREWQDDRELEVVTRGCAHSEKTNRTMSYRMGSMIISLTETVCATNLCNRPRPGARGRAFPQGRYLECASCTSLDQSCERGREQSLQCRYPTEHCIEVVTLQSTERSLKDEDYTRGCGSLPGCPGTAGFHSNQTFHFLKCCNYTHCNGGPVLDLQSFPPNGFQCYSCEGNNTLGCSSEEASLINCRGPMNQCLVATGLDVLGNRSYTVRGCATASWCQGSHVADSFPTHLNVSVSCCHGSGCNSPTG
- method: FACS, NCTC L929 mouse cells, mAb 6.25 µg/ml
# X Geo Mean per entry
Form rule: numeric answer, no unit written next to it.

Record excerpt, results attached:
anti-uPAR monoclonal antibody 1.4.2 (antibody, V domains shown) VH: EVQLVESGGGLVQPGGSLRLSCAASGFTFSSYDMHWVRQATGKGLEWVSAIGTAGDTYYPGSVKGRFTISRENAKNSLYLQMNSLRAGDTAVYYCAREGDYSNYFTMVRGVTYGMDVWGQGTTVTVSS VL: DIQLTQSPSSLCASVGDRITITCRASQGISKYLAWFQQKPGKAPKSLIYGASSLQSGVPAKFSGSGSGTDFTLTISSLQPEDFATYYCQQYNSYPLTFGGGTKVEIK: 12.4
anti-uPAR monoclonal antibody 1.113.2 (antibody, V domains shown) VH: QVQLVESGGGVVQPGRSLRLSCAASGFTFSSYGMHWVRQAPGKGLEWVAVIWYDGSNKYYADSVKGRFTISRDNSKNTLYLQMNSLRAEDTAVYYCARDLAALYYYYGMHVWGQGTTVTVSS VL: EIVMTQSPATLSVSPGERATLSCRASQSFSSNLAWYQQKPGQAPRLLIYGASTRATGIPARFSGSGSGTEFTLTISSLQSEDFAVYYCQQNNNWPRTFGQGTKVEIK: 10.2
anti-uPAR monoclonal antibody 1.99.1 (antibody, V domains shown) VH: EVQLVESGGGLIQPGGSLRLSCAASGFTVRSNYMSWVRQAPGKGLEWISVIYTGGSTYYADSVKGRFSISRDNSKNTLYLQMNSLRAEDTAVYYCAREGAVAGFDYWGQGTLVTVSS VL: EIVMTQSPATLSVSPGERATLSCRASQSISSNLAWYQQKPGQAPRLLIYGASTRATGIPARFSGSGSGTEFTLTISSLQSEDFAVYYCQQYTNWPLTFGGGTKVEIK: 11.7
fully human monoclonal antibody 2.6.1 (ATCC Accession Number PTA-7475) (antibody, V domains shown, also called mAb 2.6.1) VH: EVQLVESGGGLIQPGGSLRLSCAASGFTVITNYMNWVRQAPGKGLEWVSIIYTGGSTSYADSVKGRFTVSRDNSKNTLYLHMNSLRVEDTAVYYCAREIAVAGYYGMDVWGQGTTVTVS VL: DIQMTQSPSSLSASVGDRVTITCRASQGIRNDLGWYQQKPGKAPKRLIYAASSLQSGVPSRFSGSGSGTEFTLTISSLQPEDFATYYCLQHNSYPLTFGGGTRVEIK: 12.9

For the next question, use this binder.
GET /values?readout=X Geo Mean&item= anti-uPAR monoclonal antibody 4.19.1 (antibody, V domains shown) VH: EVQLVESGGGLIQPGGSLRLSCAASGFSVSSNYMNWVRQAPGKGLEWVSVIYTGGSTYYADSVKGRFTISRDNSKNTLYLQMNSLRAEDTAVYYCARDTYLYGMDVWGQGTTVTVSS VL: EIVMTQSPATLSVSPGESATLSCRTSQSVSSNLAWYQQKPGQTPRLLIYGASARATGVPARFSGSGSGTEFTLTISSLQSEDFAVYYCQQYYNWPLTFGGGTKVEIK 9.59
